TARGET: recombinant human GR (Homo sapiens, UniProt P04150)
Sequence (P04150 whole entry): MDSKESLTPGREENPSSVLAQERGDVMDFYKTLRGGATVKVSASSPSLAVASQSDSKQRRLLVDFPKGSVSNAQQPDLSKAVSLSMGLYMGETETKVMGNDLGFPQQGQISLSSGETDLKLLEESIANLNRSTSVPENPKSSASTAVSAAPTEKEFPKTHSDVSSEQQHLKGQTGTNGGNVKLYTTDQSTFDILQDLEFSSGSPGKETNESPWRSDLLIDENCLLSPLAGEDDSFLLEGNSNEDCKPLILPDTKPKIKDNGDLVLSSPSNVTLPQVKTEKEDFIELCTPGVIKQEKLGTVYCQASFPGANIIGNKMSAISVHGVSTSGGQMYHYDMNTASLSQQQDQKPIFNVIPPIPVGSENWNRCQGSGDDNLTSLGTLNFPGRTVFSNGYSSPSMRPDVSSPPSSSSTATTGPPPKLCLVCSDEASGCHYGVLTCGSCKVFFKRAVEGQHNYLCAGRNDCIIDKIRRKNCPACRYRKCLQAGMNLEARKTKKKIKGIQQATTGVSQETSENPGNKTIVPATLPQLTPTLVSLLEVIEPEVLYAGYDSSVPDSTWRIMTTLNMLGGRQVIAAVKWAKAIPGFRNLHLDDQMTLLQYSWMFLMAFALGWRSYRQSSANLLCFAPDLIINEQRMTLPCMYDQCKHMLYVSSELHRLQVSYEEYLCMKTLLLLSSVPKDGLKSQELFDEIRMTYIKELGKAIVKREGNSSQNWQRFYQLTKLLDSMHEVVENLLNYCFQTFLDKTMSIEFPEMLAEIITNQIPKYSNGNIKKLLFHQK
PROTOCOL_SUMMARY: Human Glucocorticoid Receptor (GR) Assay, fluorescence polarization
MEASUREMENT_SETUP: GS Red tracer, incubated 2 h at r.t., XLfit model 205, read-out: GRhuFL_FP_v2 Mean IC50
QUANTITY: IC50 (nM)
One number for each entry, in nM.

TEST_SMILES | RESULT
COc1cccc([C@@H](Oc2ccc3c(cnn3-c3ccc(F)cc3)c2)[C@H](C)NC(=O)c2ncsc2C)c1 | 5
C[C@H](NC(=O)C(F)F)[C@H](Oc1ccc2c(cnn2-c2ccc(F)cc2)c1)c1ccccc1 | 2.7
CCC[C@H](NC(=O)CO)[C@H](Oc1ccc2c(cnn2-c2ccc(F)cc2)c1)c1cccc(OC)c1 | 3.7

Here is the next item to consider.
Query: // output IC50; input C[C@H](NC(=O)C(C)(F)F)[C@H](Oc1ccc2c(cnn2-c2ccc(F)cc2)c1)c1ccc(Cl)cc1 ; system recombinant human GR (Homo sapiens, UniProt P04150)
Result: 8.4
